Where these numbers come from: PubChem BioAssay AID588664

# TARGET_UNDER_TEST: Tyrosine-protein kinase ABL1 (Homo sapiens) + Ras and Rab interactor 1 (Homo sapiens) (UniProt P00519+Q13671)
# Sequence (P00519 whole entry, looked up): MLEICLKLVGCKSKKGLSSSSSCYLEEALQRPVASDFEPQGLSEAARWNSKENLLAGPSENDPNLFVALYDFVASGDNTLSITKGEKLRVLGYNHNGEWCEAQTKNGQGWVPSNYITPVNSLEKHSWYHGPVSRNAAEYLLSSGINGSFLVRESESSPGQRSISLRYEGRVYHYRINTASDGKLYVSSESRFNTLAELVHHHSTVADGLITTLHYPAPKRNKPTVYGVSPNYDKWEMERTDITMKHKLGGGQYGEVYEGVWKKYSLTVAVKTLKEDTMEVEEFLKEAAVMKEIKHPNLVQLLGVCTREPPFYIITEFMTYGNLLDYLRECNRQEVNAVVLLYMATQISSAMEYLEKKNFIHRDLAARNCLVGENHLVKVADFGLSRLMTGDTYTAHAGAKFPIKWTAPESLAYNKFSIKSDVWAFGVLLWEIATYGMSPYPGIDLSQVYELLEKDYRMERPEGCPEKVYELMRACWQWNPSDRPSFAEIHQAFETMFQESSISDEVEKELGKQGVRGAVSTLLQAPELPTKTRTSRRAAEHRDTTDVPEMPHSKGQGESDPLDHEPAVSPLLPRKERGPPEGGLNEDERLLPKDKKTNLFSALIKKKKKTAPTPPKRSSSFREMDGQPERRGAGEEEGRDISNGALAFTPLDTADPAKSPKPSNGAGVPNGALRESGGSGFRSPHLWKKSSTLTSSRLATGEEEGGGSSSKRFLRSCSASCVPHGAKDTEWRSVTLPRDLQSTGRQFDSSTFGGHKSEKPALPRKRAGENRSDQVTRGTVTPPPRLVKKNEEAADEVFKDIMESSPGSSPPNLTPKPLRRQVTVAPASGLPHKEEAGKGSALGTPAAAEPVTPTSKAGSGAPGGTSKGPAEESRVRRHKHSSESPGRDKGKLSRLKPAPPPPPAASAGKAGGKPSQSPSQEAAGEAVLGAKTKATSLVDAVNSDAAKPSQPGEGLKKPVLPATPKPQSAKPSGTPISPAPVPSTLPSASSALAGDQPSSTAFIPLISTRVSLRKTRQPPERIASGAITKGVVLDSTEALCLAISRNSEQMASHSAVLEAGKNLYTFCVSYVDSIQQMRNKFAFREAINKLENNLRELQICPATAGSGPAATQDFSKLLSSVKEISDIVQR
# Sequence (Q13671 whole entry, looked up): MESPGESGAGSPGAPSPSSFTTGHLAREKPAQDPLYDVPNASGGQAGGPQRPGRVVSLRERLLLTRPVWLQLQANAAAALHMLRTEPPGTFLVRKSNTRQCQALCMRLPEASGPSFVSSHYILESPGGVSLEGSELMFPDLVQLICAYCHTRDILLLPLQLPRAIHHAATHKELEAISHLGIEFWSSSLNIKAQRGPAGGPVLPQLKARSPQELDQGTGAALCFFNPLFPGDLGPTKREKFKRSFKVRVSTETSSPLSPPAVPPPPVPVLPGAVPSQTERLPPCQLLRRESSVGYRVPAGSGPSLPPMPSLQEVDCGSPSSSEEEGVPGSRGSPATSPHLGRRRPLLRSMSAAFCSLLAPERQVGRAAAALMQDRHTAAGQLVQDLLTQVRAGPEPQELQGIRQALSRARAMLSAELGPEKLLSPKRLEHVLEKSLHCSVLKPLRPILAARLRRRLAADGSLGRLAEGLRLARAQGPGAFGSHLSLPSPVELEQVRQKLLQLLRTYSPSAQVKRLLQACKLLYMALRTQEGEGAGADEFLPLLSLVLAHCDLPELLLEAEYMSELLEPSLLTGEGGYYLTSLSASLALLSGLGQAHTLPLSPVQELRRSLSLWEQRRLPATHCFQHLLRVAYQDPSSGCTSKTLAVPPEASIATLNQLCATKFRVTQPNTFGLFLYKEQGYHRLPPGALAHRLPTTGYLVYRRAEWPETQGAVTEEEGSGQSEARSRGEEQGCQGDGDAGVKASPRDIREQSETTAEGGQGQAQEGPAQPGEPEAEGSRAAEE
# EXPERIMENTAL_PROTOCOL: inhibitors of Rin1-Abl protein binding, primary screen, biochemical, TR-FRET (AID 588664)
# PROTOCOL_CONDITIONS: at 7.35 µM
Out of some 360,000 compounds screened, about 1,400 (0.39%) were called active. Cut-off read from the data, not from the text of the source: active = inhibition above about 5% (passing the limit was not always enough); inactive = the rest. For the sample, actives were picked, then their nearest neighbours and some compounds at random.
In this exercise, the only acceptable responses are active, inactive

Example entries and their recorded answers appear below.
COMPOUND | CATEGORY_LABEL
CCOC(=O)N1CCN(Cc2oc(CO)cc(=O)c2O)CC1 | inactive
COc1cccc(-n2c(SCC(=O)NC3CCS(=O)(=O)C3)nc3ccccc3c2=O)c1 (stereo unspecified) | inactive

Can you look up the reported call for `Cc1nn(C)c(Cl)c1CN1CCC(Oc2ccc(C(=O)N3CCCC3)cc2)CC1` for me?
inactive

Look up the recorded call for `CC(=O)Nc1ccc(CN2CCC(Oc3ccc(C(=O)N4CCCC4)cc3)CC2)cc1` in this test.
active

Would you mind telling me which call this test gave `O=c1ccc2c(-c3ccccc3S(=O)(=O)O)c3ccc(O)c(O)c3oc-2c1O` ?
active

Hi team, can someone confirm the assay call for Cc1cccc(CN2CCN(C3CN(Cc4ccccc4)S(=O)(=O)C3)CC2)c1 (stereo unspecified) ?
inactive

How was CCOC1CCCCC1NS(=O)(=O)c1ccc(Cl)cc1 (stereo unspecified) classified in this test?
inactive

Field: outcome | Entry: CCOc1ccc(-n2c(SCC(=O)NC3CCS(=O)(=O)C3)nnc2-c2cccnc2)cc1 (stereo unspecified)
active
